# assay-remarks: Selectivity ratio of CC50 for human MT4 cells to IC50 for HIV1 RES056 infected in MT4 cells
measurement-name: selectivity ratio

{"substance-smiles": "Cc1cc(C#N)cc(C)c1Oc1nc(NC2CCN(Cc3ccc(C(N)=O)cc3)CC2)nc2c1CSCC2", "measurement-name": "selectivity ratio", "bound-type": ">", "quantitative-result": 1690}
{"substance-smiles": "Cc1cc(C#N)cc(C)c1Oc1nc(NC2CCN(Cc3ccc(S(C)(=O)=O)cc3)CC2)nc2c1CSCC2", "measurement-name": "selectivity ratio", "bound-type": "=", "quantitative-result": 465}
{"substance-smiles": "Cc1cc(/C=C/C#N)cc(C)c1Oc1nc(Nc2ccc(C#N)cn2)nc2c1CSCC2", "measurement-name": "selectivity ratio", "bound-type": "=", "quantitative-result": 404}
{"substance-smiles": "Cc1cc(/C=C/C#N)cc(C)c1Oc1nc(NC2CCN(Cc3ccc(S(N)(=O)=O)cc3)CC2)nc2c1CSCC2", "measurement-name": "selectivity ratio", "bound-type": "=", "quantitative-result": 272}
{"substance-smiles": "Cc1cc(/C=C/C#N)cc(C)c1Oc1nc(NC2CCN(Cc3ccc(S(C)(=O)=O)cc3)CC2)nc2c1CSCC2", "measurement-name": "selectivity ratio", "bound-type": "=", "quantitative-result": 186}
{"substance-smiles": "Cc1cc(C#N)cc(C)c1Oc1nc(NC2CCN(Cc3ccc([N+](=O)[O-])cc3)CC2)nc2c1CSCC2", "measurement-name": "selectivity ratio", "bound-type": ">", "quantitative-result": 83}
{"substance-smiles": "Cc1cc(C#N)cc(C)c1Oc1nc(NC2CCN(Cc3cccc(C(N)=O)c3)CC2)nc2c1CSCC2", "measurement-name": "selectivity ratio", "bound-type": ">", "quantitative-result": 144}

====

# assay-remarks: in vitro
# condition-info: human, MT4 cells
# Description: Selectivity index, ratio of CC50 for human MT4 cells to EC50 for HIV1 harboring E138K mutant infected in human MT4 cells
// selectivity ratio lookup, one value per entry

{"substance-smiles": "Cc1cc(/C=C/C#N)cc(C)c1Oc1nc(Nc2ccc(C#N)c(F)c2)nc2c1CSCC2", "selectivity ratio": 1320}
{"substance-smiles": "Cc1cc(/C=C/C#N)cc(C)c1Oc1nc(NC2CCN(Cc3ccc(S(N)(=O)=O)cc3)CC2)nc2c1CSCC2", "selectivity ratio": 370}
{"substance-smiles": "Cc1cc(/C=C/C#N)cc(C)c1Oc1nc(NC2CCN(Cc3ccc(C(N)=O)cc3)CC2)nc2c1CSCC2", "selectivity ratio": 615}
{"substance-smiles": "Cc1cc(C#N)cc(C)c1Oc1nc(NC2CCN(Cc3ccc(C(N)=O)cc3)CC2)nc2c1CSCC2", "selectivity ratio": "> 7180"}

====

# assay-remarks: Cmax in Sprague-Dawley rat at 20 mg/kg, po measured after 15 to 720 mins by LC-MS/MS analysis
# Type: ADME, organism-based
# Set-up: route oral, dose 20 mg/kg, time 15-720 min
# condition-info: in vivo
measurement-name: Cmax

{"substance-smiles": "Cc1cc(/C=C/C#N)cc(C)c1Oc1nc(Nc2ccc(C#N)cc2)nc2c1CSCC2", "result": "0.0166 µg/mL"}

====

# assay-remarks: MRT (0 to infinity) in Sprague-Dawley rat at 2 mg/kg, iv measured after 5 to 600 mins by LC-MS/MS analysis
# Format: ADME, organism-based
# condition-info: in vivo, time 5-600 min

{"substance-smiles": "Cc1cc(/C=C/C#N)cc(C)c1Oc1nc(Nc2ccc(C#N)cc2)nc2c1CSCC2", "MRT inf / min": 30}
